B1: CPEB3 Ribozyme (parent)
chain: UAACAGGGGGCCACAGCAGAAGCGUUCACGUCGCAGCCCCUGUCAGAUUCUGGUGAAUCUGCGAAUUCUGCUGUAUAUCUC

variants of: B1; test: self-cleavage, relative activity (ratio to wild type); higher = more cleavage; in vitro, sequencing
Answer no if self-cleavage is under 0.5, and yes if it is 0.5 or more.

Would you please look over these solved cases?
UAACUGGGGGCCACAGCAGAAGCGUUCACGUCGCAGCCCCUGUCAGAUACUGGUGAAUCUGCGAAUUCUGCUGUAUAUCUC    no
UAACAGGGGGCCACAGCAGAAGCGUUCACGUCGCGGCCCCUGUCAGAUUCUGGUGAAUCUGCGAAUUCAGCUGUAUAUCUC    yes
UAACAGGGGGCCACAGCAGAAGCGUUCACGUCGCAGCCCCUGUCAGAUUCUGGAGAACCUGCGAAUUCUGCUGUAUAUCUC    yes

## Input Does `UAACAGGGGGCCACAGCAGAAGCGUUCACGUCGCAGCCCCUGUCAGAUUCUGGUGAAUCUGCGUAUUCAGCUGUAUAUCUC` have a reported self-cleavage of at least 0.5?
## Output no
